Sourced from patent US12065404B2

tested-on: GABAA (Homo sapiens, UniProt P14867+P18507+P47870)
Sequence (P14867 28-456): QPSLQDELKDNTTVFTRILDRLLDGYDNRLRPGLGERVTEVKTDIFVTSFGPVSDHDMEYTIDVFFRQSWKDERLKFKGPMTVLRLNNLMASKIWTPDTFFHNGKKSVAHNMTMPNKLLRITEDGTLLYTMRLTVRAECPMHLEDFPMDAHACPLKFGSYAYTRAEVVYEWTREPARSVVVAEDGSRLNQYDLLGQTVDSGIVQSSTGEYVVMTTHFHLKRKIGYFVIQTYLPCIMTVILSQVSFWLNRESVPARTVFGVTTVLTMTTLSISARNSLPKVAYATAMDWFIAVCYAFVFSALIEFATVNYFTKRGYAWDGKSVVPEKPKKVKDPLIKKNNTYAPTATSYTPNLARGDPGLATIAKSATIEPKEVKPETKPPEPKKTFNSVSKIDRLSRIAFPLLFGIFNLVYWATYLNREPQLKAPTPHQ
Sequence (P47870 26-512): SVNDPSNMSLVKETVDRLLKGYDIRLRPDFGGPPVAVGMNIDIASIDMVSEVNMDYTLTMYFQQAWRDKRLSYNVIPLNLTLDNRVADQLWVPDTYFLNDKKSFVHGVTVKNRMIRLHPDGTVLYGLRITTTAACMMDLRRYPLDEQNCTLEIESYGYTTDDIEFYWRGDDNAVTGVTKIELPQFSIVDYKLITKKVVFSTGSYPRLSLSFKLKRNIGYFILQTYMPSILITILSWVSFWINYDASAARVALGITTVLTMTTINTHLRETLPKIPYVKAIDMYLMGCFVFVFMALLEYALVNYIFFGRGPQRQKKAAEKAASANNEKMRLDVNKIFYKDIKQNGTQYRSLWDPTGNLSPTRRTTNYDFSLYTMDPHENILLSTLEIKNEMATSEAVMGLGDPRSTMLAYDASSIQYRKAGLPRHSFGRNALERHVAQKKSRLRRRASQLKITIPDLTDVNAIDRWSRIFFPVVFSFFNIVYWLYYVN
Sequence (P18507 40-475): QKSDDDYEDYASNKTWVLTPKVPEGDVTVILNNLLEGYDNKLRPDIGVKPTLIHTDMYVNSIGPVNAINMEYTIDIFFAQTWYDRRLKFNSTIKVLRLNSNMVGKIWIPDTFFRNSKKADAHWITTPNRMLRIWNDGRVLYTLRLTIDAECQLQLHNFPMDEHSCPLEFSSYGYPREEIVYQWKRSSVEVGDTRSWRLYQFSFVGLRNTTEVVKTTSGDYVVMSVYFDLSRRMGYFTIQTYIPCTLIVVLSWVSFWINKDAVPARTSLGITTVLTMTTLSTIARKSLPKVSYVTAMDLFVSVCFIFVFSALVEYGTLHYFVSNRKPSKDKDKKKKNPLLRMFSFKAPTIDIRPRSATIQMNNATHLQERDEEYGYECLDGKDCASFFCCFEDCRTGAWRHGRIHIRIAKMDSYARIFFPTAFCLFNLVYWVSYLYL
Format: cell-based
run-parameters: ion channel, blocker (BL) mode
measurement-type: IC50

The reported IC50 of the molecule COc1ccc(C(=O)Oc2cccc3[nH]cc(CCN(C)C)c23)cc1 was > 100 µM

* * *

protocol-details: Mouse pharmacokinetic (PK) study, parent compound and psilocin metabolite in plasma
Format: in vivo, C57Bl/6 mice
run-parameters: male, C57Bl/6, mouse, plasma, po, 3 mg/kg, 3 mg/kg oral; AUC0-tlast used for p.o. group, value might be under-estimated; mean ± SD
measurement-type: bioavailability

The reported bioavailability of the molecule CN(C)CCc1c[nH]c2cccc(OC(=O)c3ccc(Br)cc3)c12 [C(I)] was 0.491%

* * *

protocol-details: Mouse pharmacokinetic (PK) study, parent compound and psilocin metabolite in plasma
Format: in vivo, C57Bl/6 mice
run-parameters: male, C57Bl/6, mouse, plasma, po, 10 mg/kg, 10 mg/kg oral; AUC0-tlast used for p.o. group; individual animals
measurement-type: bioavailability (%)
Note: unit % is implicit; provide only the numeric part.

The reported bioavailability of the molecule CN(C)CCc1c[nH]c2cccc(OC(=O)c3ccc(Br)cc3)c12 was 0.419
